Provenance of the data: the NIST ThermoML archive (doi:10.1021/je4004965)

- Experiment Notes: molar heat capacity at constant pressure
- Condition Description: 303.15 K; 101.33 kPa; Liquid; Small sample (50 mg) DSC
Reported molar heat capacity at constant pressure values follow for various compounds
Endpoint: molar heat capacity at constant pressure (J/K/mol)

[
  {
    "Compound": "c1ccncc1 [pyridine]",
    "Endpoint": "molar heat capacity at constant pressure",
    "Reported Value": 132.71
  },
  {
    "Compound": "Cc1ccccn1 [2-methylpyridine]",
    "Endpoint": "molar heat capacity at constant pressure",
    "Reported Value": 160.14
  },
  {
    "Compound": "CCn1cc[n+](C)c1.F[B-](F)(F)F [1-ethyl-3-methylimidazolium tetrafluoroborate]",
    "Endpoint": "molar heat capacity at constant pressure",
    "Reported Value": 306.16
  },
  {
    "Compound": "Cc1cccnc1 [3-methylpyridine]",
    "Endpoint": "molar heat capacity at constant pressure",
    "Reported Value": 160.83
  },
  {
    "Compound": "Cc1ccccc1N [2-methylaniline]",
    "Endpoint": "molar heat capacity at constant pressure",
    "Reported Value": 218.43
  },
  {
    "Compound": "Cc1ccncc1 [4-methylpyridine]",
    "Endpoint": "molar heat capacity at constant pressure",
    "Reported Value": 160.84
  }
]
